Test system: XIP peptide (Xip251-270)
Assay: small-molecule binders of XIP peptide, primary screen, biochemical, small-molecule microarray, fluorescence 635/667 nm, 0.5 µg/mL protein (AID 1183)
Settings: small-molecule microarray binding, fluorescence 635 nm; higher = more signal
Rule: composite z-score under 0.4 gives FALSE, otherwise TRUE.

Recorded results for 6 compounds are shown here.
{"Compound": "O=C1OCC=C[C@H]2OC34C=CCN(Cc5ccccc5)C(=O)[C@H]3N(CCCCCCO)C(=O)[C@@H]4[C@@H]12 (stereo not given in full)", "System": "XIP peptide (Xip251-270)", "Class label": "FALSE"}
{"Compound": "CCOC(=O)[C@H]1[C@@H]2C(=O)N3CCC[C@H]3[C@H](O[Si](C(C)C)(C(C)C)C(C)C)[C@H]2C=C2CCN(S(=O)(=O)c3ccc(C)cc3)C[C@H]21", "System": "XIP peptide (Xip251-270)", "Class label": "TRUE"}
{"Compound": "COc1cc(OC)c(C(O)C2C=CC3C(=O)N(c4ccccc4)C(=O)C3N2Nc2ccccc2)cc1Br (stereo not given)", "System": "XIP peptide (Xip251-270)", "Class label": "TRUE"}
{"Compound": "O=C1OCCC/C=C\\[C@H]2OC34C=CCN(CCN5CCOCC5)C(=O)[C@H]3N(CCCCCCO)C(=O)[C@@H]4C12 (stereo not given in full)", "System": "XIP peptide (Xip251-270)", "Class label": "FALSE"}
{"Compound": "C[C@H]1NC(=O)[C@@]23C(=O)N[C@@H](Cc4ccccc4)C2[C@H](C)[C@@]2(C)O[C@H]2C3/C=C/C/C=C\\CNC(=O)[C@H](Cc2ccccc2)NC1=O (stereo not given in full)", "System": "XIP peptide (Xip251-270)", "Class label": "TRUE"}
{"Compound": "NC(N)=NCCCn1cc(CNC(=O)[C@@H](N)Cc2ccccc2)nn1", "System": "XIP peptide (Xip251-270)", "Class label": "FALSE"}

Enquiry: For this compound, is measured composite z-score 0.4 or higher? C=CCN1C(=O)[C@@]2(O[C@@H](CCn3cc([C@H](O)c4ccccc4)nn3)[C@H]([Si](C)(C)c3ccc(OC)cc3)[C@H]2C)c2cc(N3CCC3=O)ccc21
Return: FALSE

Enquiry: For this compound, is measured composite z-score 0.4 or higher? CC(C)[Si](C#C[Si](C(C)C)(C(C)C)C(C)C)(O[C@H](C)c1cn([C@H](CO)Cc2ccccc2)nn1)C(C)C
Return: FALSE

Enquiry: For this compound, is measured composite z-score 0.4 or higher? CCCCCCCCCCC(O)C1C=CC2C(=O)N(C)C(=O)C2N1NC(=O)OC(C)(C)C (stereo not given)
Return: TRUE

Enquiry: For this compound, is measured composite z-score 0.4 or higher? CCOC(=O)c1ccc(NC(=O)O[C@H]2[C@H](OC(=O)Nc3ccc4c(c3)OCO4)[C@H](OC(=O)Nc3ccc4c(c3)OCO4)[C@@H](OC)O[C@@H]2CO)cc1
Return: TRUE

Enquiry: For this compound, is measured composite z-score 0.4 or higher? CCOC(=O)C[C@H]1[C@H](OC(=O)Cc2ccc3c(c2)OCO3)[C@@H](NC(=O)Cc2ccc(OC)cc2)c2cc(OCCCO)ccc2N1C(=O)c1ccc2ccccc2n1
Return: FALSE

Enquiry: For this compound, is measured composite z-score 0.4 or higher? O=C(NCCCCCNC(=O)/C(Cc1ccccc1)=N/O)OCc1ccccc1
Return: FALSE

Enquiry: For this compound, is measured composite z-score 0.4 or higher? COc1ccc(CCNC(=O)[C@@H]2c3ccccc3C(=O)N(Cc3cc(C(F)(F)F)cc(C(F)(F)F)c3)[C@H]2c2ccc(CO)cc2)cc1
Return: TRUE

Enquiry: For this compound, is measured composite z-score 0.4 or higher? C[C@]1(C(=O)NC2CC2)c2ccccc2C(=O)N(Cc2ccccc2)[C@H]1c1ccc(CO)cc1
Return: FALSE

Enquiry: For this compound, is measured composite z-score 0.4 or higher? CCCCN1CC=CC23O[C@@H]4/C=C\CCC(C)OC(=O)C4[C@H]2C(=O)N(C(CO)C(C)C)[C@@H]3C1=O (stereo not given in full)
Return: TRUE
